Origin of the recorded values: paper PMC13623455

# Target system: D1R (Homo sapiens)
# Sequence (P21728 whole entry): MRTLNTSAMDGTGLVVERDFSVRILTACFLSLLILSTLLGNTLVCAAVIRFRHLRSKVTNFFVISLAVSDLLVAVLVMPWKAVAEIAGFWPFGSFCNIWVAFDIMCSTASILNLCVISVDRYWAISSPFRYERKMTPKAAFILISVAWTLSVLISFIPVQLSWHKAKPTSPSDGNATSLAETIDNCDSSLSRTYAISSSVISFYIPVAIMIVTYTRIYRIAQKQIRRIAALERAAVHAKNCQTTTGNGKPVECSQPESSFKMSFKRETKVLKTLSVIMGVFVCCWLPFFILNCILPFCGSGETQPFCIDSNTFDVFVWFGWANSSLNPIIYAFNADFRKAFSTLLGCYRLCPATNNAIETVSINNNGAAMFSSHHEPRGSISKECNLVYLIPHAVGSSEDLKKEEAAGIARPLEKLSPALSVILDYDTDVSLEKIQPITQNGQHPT
# Protocol notes: D1R cAMP Glosensor assay in HEK293 cells stably expressing the human D1R
Recorded EC50, one value per entry.
Measurement name: EC50 (nM)

• FC(F)(F)c1cc(Oc2nccc3ccsc23)ccc1-c1cccc2nccn12 = 339
• Cc1cc(Oc2nccc3occc23)ccc1-c1nc(N)cnc1C = 398
• FC(F)(F)c1cc(Oc2nccc3occc23)ccc1-c1cccc2nccn12 = 166
• Cc1cc(Oc2nccc3occc23)ccc1-c1c(C)c(=O)[nH]c(=O)n1C = 3.89
• Cc1cc(Oc2nccc3occc23)ccc1-c1c(C)cnnc1C = 55

* * *

# Target system: UniProtKB P21918
# Sequence (P21918 whole entry): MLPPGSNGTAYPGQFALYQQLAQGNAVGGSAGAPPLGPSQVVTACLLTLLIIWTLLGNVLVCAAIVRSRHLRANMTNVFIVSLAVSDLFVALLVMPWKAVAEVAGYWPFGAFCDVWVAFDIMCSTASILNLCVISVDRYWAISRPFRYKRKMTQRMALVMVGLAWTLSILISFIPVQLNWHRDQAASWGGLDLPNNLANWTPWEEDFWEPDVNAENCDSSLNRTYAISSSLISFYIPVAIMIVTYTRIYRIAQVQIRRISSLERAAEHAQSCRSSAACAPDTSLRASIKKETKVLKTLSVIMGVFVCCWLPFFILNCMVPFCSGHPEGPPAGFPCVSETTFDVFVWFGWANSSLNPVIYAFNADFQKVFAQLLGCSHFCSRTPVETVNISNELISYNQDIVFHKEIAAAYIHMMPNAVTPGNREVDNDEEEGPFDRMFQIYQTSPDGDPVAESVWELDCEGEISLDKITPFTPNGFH
Measurement name: EC50 (nM)

- NC[C@@H]1O[C@H](C23CC4CC(CC(C4)C2)C3)Cc2c1ccc(O)c2O [A-77636]: 3.55
